Tested on: SU-DHL-1 cells
test protocol: CellTiter-Glo 2.0 cell viability assay, SU-DHL-1
Format: cell-based
details: Homo sapiens, 96 h, 4 days
measure: IC50

Completed entries (count: 2):
>>> endpoint_value("CC(=O)N1CC[C@H]2CC[C@@H](C(=O)N[C@@H](CCC(N)=O)COc3cccc(CCCc4cn([C@H](C(=O)N5C[C@H](O)C[C@H]5C(=O)N[C@@H](CN5CCOCC5)c5ccc(-c6scnc6C)cc5)C(C)(C)C)nn4)c3Cl)N2C(=O)[C@@H](NC(=O)c2cc3cc(C(=O)P(=O)(O)O)ccc3[nH]2)C1")
"10 to 100 nM"
>>> endpoint_value("CCS(=O)(=O)c1ccc(CNC(=O)[C@H](CCC(N)=O)NC(=O)[C@@H]2CC[C@@H]3CCN(C(=O)CCCCCc4cn([C@H](C(=O)N5C[C@H](O)C[C@H]5C(=O)N[C@@H](C)c5ccc(-c6scnc6C)cc5)C(C)(C)C)nn4)C[C@H](NC(=O)c4cc5cc(C(=O)P(=O)(O)O)ccc5[nH]4)C(=O)N32)cc1")
"< 10 nM"

-- ask Consider the compound shown here: Cc1ncsc1-c1ccc([C@H](C)NC(=O)[C@@H]2C[C@@H](O)CN2C(=O)[C@@H](NC(=O)CCCCCCCC(=O)N2CC[C@H]3CC[C@@H](C(=O)N[C@@H](CCC(N)=O)C(=O)NC(c4ccccc4)c4ccccc4)N3C(=O)[C@@H](NC(=O)c3cc4cc(C(=O)P(=O)(O)O)ccc4[nH]3)C2)C(C)(C)C)cc1 What is its recorded IC50?
-- reply 100 to 1000 nM

* * *

Tested on: SUP-M2 cells
test protocol: CellTiter-Glo 2.0 cell viability assay, SUP-M2
Type: cell-based
details: SUP-M2, 96 h, 4 days
measure: IC50

Examples with answers:
>>> endpoint_value("CC(=O)N1CC[C@H]2CC[C@@H](C(=O)N[C@@H](CCC(N)=O)COc3cccc(CCCCNC(=O)C[C@H](NC(=O)[C@@H]4C[C@@H](O)CN4C(=O)[C@H](C4CCCCC4)n4cc(C5CC5)nn4)c4ccc(-c5scnc5C)cc4)c3Cl)N2C(=O)[C@@H](NC(=O)c2cc3cc(C(=O)P(=O)(O)O)ccc3[nH]2)C1 [Compound 36]")
"< 10 nM"
>>> endpoint_value("Cc1ncsc1-c1ccc([C@H](C)NC(=O)[C@@H]2C[C@@H](O)CN2C(=O)[C@@H](n2cc(CCCCCC(=O)N3CC[C@H]4CC[C@@H](C(=O)N[C@@H](CCC(N)=O)C(=O)NC(c5ccccc5)c5ccccc5)N4C(=O)[C@@H](NC(=O)c4cc5cc(C(=O)P(=O)(O)O)ccc5[nH]4)C3)nn2)C(C)(C)C)cc1 [Compound 58]")
"100 to 1000 nM"

For the next question, use this compound.
-- ask Can you share its IC50? I mean this compound: Cc1ncsc1-c1ccc([C@H](C)NC(=O)[C@@H]2C[C@@H](O)CN2C(=O)[C@@H](n2cc(CCCc3cccc(OC[C@H](CCC(N)=O)NC(=O)[C@@H]4CC[C@@H]5CCN(C(=O)C6CCN(C)CC6)C[C@H](NC(=O)c6cc7cc(C(=O)P(=O)(O)O)ccc7[nH]6)C(=O)N54)c3Cl)nn2)C(C)(C)C)cc1 [Compound 32]
-- reply 100 to 1000 nM

* * *

test target: STAT3 (Homo sapiens)
Construct: This cell line is a clone created by using CRISPR-Cas9 to fuse HiBiT to the 3′ end of STAT3 in HeLa cells; host or cells: STAT3-HiBiT KI HeLa cell line (CRISPR-Cas9 knock-in clone)
Sequence (P40763 whole entry): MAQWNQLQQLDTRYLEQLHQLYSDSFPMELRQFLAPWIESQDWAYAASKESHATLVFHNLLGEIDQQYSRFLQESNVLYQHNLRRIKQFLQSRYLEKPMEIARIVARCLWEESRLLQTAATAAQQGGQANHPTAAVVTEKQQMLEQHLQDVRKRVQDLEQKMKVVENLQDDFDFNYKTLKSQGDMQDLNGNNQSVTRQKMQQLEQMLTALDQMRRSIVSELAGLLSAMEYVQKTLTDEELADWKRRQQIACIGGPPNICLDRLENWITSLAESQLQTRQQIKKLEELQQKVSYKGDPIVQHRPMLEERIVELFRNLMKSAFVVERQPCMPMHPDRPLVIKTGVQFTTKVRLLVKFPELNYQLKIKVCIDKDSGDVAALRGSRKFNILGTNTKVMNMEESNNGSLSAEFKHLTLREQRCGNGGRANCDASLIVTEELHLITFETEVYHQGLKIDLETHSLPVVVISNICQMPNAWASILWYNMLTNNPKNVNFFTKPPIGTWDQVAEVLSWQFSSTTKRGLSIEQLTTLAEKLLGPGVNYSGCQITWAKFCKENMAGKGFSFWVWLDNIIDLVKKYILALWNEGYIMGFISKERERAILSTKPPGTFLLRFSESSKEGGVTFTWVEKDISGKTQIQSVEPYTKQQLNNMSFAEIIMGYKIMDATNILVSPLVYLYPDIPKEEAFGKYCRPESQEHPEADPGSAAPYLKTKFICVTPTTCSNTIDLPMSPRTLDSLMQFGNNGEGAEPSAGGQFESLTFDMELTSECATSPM
test protocol: HiBiT assay, STAT3 degradation in STAT3-HiBiT KI HeLa cells
Type: cell-based
details: 24 h, @1 μM
compounds and their reported Dmax at 1 µM

-- ask What does the record list as Dmax at 1 µM for CCS(=O)(=O)c1ccc(CNC(=O)[C@H](CCC(N)=O)NC(=O)[C@@H]2CC[C@@H]3CCN(C(=O)CCCCCc4cn([C@H](C(=O)N5C[C@H](O)C[C@H]5C(=O)N[C@@H](COCCOCCOCCOC)c5ccc(-c6scnc6C)cc5)C(C)(C)C)nn4)C[C@H](NC(=O)c4cc5cc(C(=O)P(=O)(O)O)ccc5[nH]4)C(=O)N32)cc1 ?
-- reply > 80%

-- ask Recorded Dmax at 1 µM for CC(=O)N1CC[C@H]2CC[C@@H](C(=O)N[C@@H](CCC(N)=O)COc3cccc(CCCc4cn(C[C@H](NC(=O)[C@@H]5C[C@@H](O)CN5C(=O)[C@@H](n5cc(C6CC6)nn5)C(C)(C)C)c5ccc(-c6scnc6C)cc5)nn4)c3Cl)N2C(=O)[C@@H](NC(=O)c2cc3cc(C(=O)P(=O)(O)O)ccc3[nH]2)C1 , please?
-- reply > 80%

-- ask Form field: reported Dmax at 1 µM of CC(=O)N1CC[C@H]2CC[C@@H](C(=O)N[C@@H](CCC(N)=O)COc3cccc(CCCCNC(=O)C[C@H](NC(=O)[C@@H]4C[C@@H](O)CN4C(=O)[C@H](C4CCCCC4)n4cc(C5CC5)nn4)c4ccc(-c5scnc5C)cc4)c3Cl)N2C(=O)[C@@H](NC(=O)c2cc3cc(C(=O)P(=O)(O)O)ccc3[nH]2)C1
-- reply > 80%

-- ask Which Dmax at 1 µM is listed for CCS(=O)(=O)c1ccc(CNC(=O)[C@H](CCC(N)=O)NC(=O)[C@@H]2CC[C@@H]3CCN(C(=O)CCCCc4cn([C@@H](C(=O)N5C[C@H](O)C[C@H]5C(=O)N[C@H](C)c5ccc(-c6scnc6C)cc5)C5CCN(C(C)=O)CC5)nn4)C[C@H](NC(=O)c4cc5cc(C(=O)P(=O)(O)O)ccc5[nH]4)C(=O)N32)cc1 ?
-- reply > 80%

-- ask For CCS(=O)(=O)c1ccc(CNC(=O)[C@H](CCC(N)=O)NC(=O)[C@@H]2CC[C@@H]3CCN(C(=O)CCCCc4cn([C@@H](C(=O)N5C[C@H](O)C[C@H]5C(=O)N[C@H](C)c5ccc(-c6scnc6C)cc5)C5CCCCC5)nn4)C[C@H](NC(=O)c4cc5cc(C(=O)P(=O)(O)O)ccc5[nH]4)C(=O)N32)cc1 , what is its reported Dmax at 1 µM?
-- reply > 80%

-- ask Any idea what Dmax at 1 µM was measured for CCS(=O)(=O)c1ccc(CNC(=O)[C@H](CCC(N)=O)NC(=O)[C@@H]2CC[C@@H]3CCN(C(=O)CCCCCc4cn([C@@H](C(=O)N5C[C@@H](O)C[C@@H]5C(=O)N[C@@H](C)c5ccc(-c6scnc6C)cc5)C5CCOCC5)nn4)C[C@H](NC(=O)c4cc5cc(C(=O)P(=O)(O)O)ccc5[nH]4)C(=O)N32)cc1 ?
-- reply > 80%

* * *

System: SUP-M2 cells
test protocol: CellTiter-Glo 2.0 cell viability assay, SUP-M2
Type: cell-based
details: SUP-M2, 96 h, 4 days
pIC50: −log10 of the molar value.
measure: pIC50

>>> endpoint_value("CCS(=O)(=O)c1ccc(CNC(=O)[C@H](CCC(N)=O)NC(=O)[C@@H]2CC[C@@H]3CCN(C(=O)[C@H]4CC[C@H](c5cn([C@H](C(=O)N6C[C@H](O)C[C@H]6C(=O)N[C@@H](C)c6ccc(-c7scnc7C)cc6)C(C)(C)C)nn5)CC4)C[C@H](NC(=O)c4cc5cc(C(=O)P(=O)(O)O)ccc5[nH]4)C(=O)N32)cc1 [Compound 18]")
"6.00 to 7.00"
>>> endpoint_value("Cc1ncsc1-c1ccc([C@H](C)NC(=O)[C@@H]2C[C@@H](O)CN2C(=O)[C@@H](NC(=O)CCCCCCCC(=O)N2CC[C@H]3CC[C@@H](C(=O)N[C@@H](CCC(N)=O)C(=O)NC(c4ccccc4)c4ccccc4)N3C(=O)[C@@H](NC(=O)c3cc4cc(C(=O)P(=O)(O)O)ccc4[nH]3)C2)C(C)(C)C)cc1 [Compound 52]")
"6.00 to 7.00"
>>> endpoint_value("CCS(=O)(=O)c1ccc(CNC(=O)[C@H](CCC(N)=O)NC(=O)[C@@H]2CC[C@@H]3CCN(C(=O)CCCCc4cn([C@@H](C(=O)N5C[C@H](O)C[C@H]5C(=O)N[C@H](C)c5ccc(-c6scnc6C)cc5)C5CCN(C(C)=O)CC5)nn4)C[C@H](NC(=O)c4cc5cc(C(=O)P(=O)(O)O)ccc5[nH]4)C(=O)N32)cc1 [Compound 22]")
"> 8.00"

-- ask What value of pIC50 has been reported for the following molecule? CCS(=O)(=O)c1ccc(CNC(=O)[C@H](CCC(N)=O)NC(=O)[C@@H]2CC[C@@H]3CCN(C(=O)CCCCCc4cn([C@H](C(=O)N5C[C@H](O)C[C@H]5C(=O)N[C@@H](C)c5ccc(-c6scnc6C)cc5)C(C)(C)C)nn4)C[C@H](NC(=O)c4cc5cc(C(=O)P(=O)(O)O)ccc5[nH]4)C(=O)N32)cc1 [Compound 14]
-- reply > 8.00

-- ask I would be grateful if you could share the reported pIC50 for Cc1ncsc1-c1ccc([C@H](C)NC(=O)[C@@H]2C[C@@H](O)CN2C(=O)[C@@H](n2cc(CCCC(=O)N3CC[C@H]4CC[C@@H](C(=O)N[C@@H](CCC(N)=O)C(=O)NCc5cccc(Cl)c5)N4C(=O)[C@@H](NC(=O)c4cc5cc(C(=O)P(=O)(O)O)ccc5[nH]4)C3)nn2)C(C)(C)C)cc1 [Compound 9] .
-- reply 7.00 to 8.00

-- ask What value of pIC50 has been recorded for this entry: CCS(=O)(=O)c1ccc(CNC(=O)[C@H](CCC(N)=O)NC(=O)[C@@H]2CC[C@@H]3CCN(C(=O)CCCCc4cn([C@@H](C(=O)N5C[C@H](O)C[C@H]5C(=O)N[C@H](C)c5ccc(-c6scnc6C)cc5)C5CCCCC5)nn4)C[C@H](NC(=O)c4cc5cc(C(=O)P(=O)(O)O)ccc5[nH]4)C(=O)N32)cc1 [Compound 20]
-- reply > 8.00
